The measured values listed here are drawn from patent US20120129858A1.

target: UniProtKB P13569; assay: T84 assay (FLIPR membrane potential dye, forskolin/IBMX-stimulated CFTR channel activity); conditions: average of at least 2 runs unless annotated n = 1
Sequence (P13569 whole entry): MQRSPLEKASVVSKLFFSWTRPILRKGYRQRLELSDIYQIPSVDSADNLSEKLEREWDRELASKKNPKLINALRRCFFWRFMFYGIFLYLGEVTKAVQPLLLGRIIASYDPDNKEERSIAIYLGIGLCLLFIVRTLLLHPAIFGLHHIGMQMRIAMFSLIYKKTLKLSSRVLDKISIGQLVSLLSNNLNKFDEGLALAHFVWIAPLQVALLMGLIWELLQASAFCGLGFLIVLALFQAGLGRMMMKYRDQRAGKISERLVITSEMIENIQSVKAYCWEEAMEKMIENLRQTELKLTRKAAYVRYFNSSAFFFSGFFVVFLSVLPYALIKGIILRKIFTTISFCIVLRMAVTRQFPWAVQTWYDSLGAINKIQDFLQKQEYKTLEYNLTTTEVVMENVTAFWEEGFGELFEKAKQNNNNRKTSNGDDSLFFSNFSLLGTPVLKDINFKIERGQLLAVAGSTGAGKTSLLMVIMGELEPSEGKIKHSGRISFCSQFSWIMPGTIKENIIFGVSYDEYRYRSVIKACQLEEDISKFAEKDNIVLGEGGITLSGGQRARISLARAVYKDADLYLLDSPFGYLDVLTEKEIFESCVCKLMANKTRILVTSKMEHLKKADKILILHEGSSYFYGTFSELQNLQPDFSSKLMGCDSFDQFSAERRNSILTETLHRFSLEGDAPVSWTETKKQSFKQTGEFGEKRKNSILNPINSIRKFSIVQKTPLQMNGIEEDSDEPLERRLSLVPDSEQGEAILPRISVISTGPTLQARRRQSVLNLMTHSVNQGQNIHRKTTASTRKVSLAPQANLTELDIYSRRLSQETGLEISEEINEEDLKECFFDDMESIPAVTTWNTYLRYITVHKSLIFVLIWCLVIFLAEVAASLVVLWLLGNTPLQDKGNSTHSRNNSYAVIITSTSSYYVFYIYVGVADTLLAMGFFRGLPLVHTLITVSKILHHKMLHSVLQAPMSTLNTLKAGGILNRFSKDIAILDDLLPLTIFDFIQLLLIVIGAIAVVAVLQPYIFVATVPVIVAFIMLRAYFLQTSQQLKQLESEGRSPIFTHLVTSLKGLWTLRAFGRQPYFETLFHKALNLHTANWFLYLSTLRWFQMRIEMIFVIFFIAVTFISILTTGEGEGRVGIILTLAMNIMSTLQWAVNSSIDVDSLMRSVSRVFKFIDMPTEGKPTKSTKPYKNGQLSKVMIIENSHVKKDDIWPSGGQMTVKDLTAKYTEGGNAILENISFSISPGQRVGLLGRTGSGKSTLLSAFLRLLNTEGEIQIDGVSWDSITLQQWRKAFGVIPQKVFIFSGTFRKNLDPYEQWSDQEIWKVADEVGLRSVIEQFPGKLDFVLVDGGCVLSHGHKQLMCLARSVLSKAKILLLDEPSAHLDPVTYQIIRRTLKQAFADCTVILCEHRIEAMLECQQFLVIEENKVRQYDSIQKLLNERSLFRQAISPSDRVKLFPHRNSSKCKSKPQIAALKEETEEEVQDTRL
QUANTITY NAME: IC50 (µM)
State just the number; it will be interpreted in µM.

MOLECULE: O=C(NS(=O)(=O)c1ccc(F)c(F)c1)c1cccc(-c2ccc(OCCc3ccc(Cl)cc3)nn2)c1 [Compound 19]
TARGET DESC: UniProtKB P13569
RESULT UNITS: µM
IC50: 13.9
--
MOLECULE: CC(C)(C)c1ccc(S(=O)(=O)Nc2cccc(-c3ccc(OCCc4ccc(Cl)cc4)nn3)c2)cc1 [Compound 18]
TARGET DESC: UniProtKB P13569
RESULT UNITS: µM
IC50: 8.09

Below: the item to evaluate.
Find the measured IC50 of O=C(NS(=O)(=O)c1ccc(F)cc1)c1cccc(-c2ccc(OCCc3ccc(Cl)cc3)nn2)c1 [Compound 12] and report it.
11.7
